- Target or test system: Avi-KRAS G12V (1-169) GppNHp/RAF1 RBD-3xFLAG (52-151) (Homo sapiens, UniProt P01116, G12V)
- Construct: Avi-KRAS G12V (1-169)
- Sequence (P01116 1-169 isoform P01116-2 G12V): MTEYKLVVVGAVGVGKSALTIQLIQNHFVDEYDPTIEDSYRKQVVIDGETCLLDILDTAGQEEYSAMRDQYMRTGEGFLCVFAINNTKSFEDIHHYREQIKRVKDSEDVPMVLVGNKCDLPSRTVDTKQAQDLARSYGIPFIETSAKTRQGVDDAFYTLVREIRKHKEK
- Method notes: Raf1-KRAS G12V-GppNHP disruption HTRF assay (Biological Example 1)
- Format: binding
- Reported conditions: KRAS G12V, GppNHp-loaded; class symbols
This listing pairs compounds with measured IC50.

| Compound | IC50 |
| --- | --- |
| CCN(c1nc(OC[C@@]23CCCN2C[C@H](F)C3)nc2c(F)c(-c3ccc(F)c4sc(N)c(C#N)c34)c(C(F)(F)F)cc12)[C@H]1C[C@H]2CN(C(C)C)C(=O)N2C1 (atropisomer, axis not shown) | 0.1 to 1 µM |
| CCN(c1nc(OC[C@@]23CCCN2C[C@H](F)C3)nc2c(F)c(-c3ccc(F)c4sc(N)c(C#N)c34)c(C(F)(F)F)cc12)[C@H]1C[C@@H](COC)N(C(=O)N(C)C)C1 (atropisomer, axis not shown) | 0.1 to 1 µM |
| CCN(c1nc(OCC23CCCN2CC(F)C3)nc2c(F)c(-c3ccc(F)c4sc(N)c(C#N)c34)c(C(F)(F)F)cc12)C1CCN(C(=O)c2oncc2C)C1 (stereo not shown) | < 0.1 µM |
| CCOC1CN(C(=O)N2CC[C@H](N(CC)c3nc(OC[C@@]45CCCN4C[C@H](F)C5)nc4c(F)c(-c5ccc(F)c6sc(N)c(C#N)c56)c(C(F)(F)F)cc34)C2)C1 (atropisomer, axis not shown) | < 0.1 µM |

---

- Target or test system: Avi-KRAS WT (1-169) GppNHp/RAF1 RBD-3xFLAG (52-151) (Homo sapiens, UniProt P01116)
- Construct: Avi-KRAS WT (1-169)
- Sequence (P01116 1-169 isoform P01116-2): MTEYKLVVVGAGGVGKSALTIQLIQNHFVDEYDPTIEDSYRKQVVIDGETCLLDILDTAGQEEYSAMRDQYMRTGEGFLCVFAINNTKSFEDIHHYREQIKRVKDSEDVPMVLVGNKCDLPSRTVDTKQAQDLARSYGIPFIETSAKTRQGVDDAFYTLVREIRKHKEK
- Method notes: Raf1-KRAS WT-GppNHP disruption HTRF assay (Biological Example 1)
- Format: binding
- Reported conditions: KRAS WT, GppNHp-loaded; class symbols
pIC50: −log10 of the molar value.
Measured attribute: pIC50

| Molecule | Measured attribute | Value reported |
| --- | --- | --- |
| CCN(c1nc(OCC23CCCN2CC(F)C3)nc2c(F)c(-c3ccc(F)c4sc(N)c(C#N)c34)c(C(F)(F)F)cc12)C1CC(C)N(C(=O)N2CC(F)C2)C1 (stereo not drawn) | pIC50 | > 7.00 |
| CCN(c1nc(OC[C@@]23CCCN2C[C@H](F)C3)nc2c(F)c(-c3ccc(F)c4sc(N)c(C#N)c34)c(C(F)(F)F)cc12)[C@H]1CCN(C(=O)OCC2CN(C(C)=O)C2)C1 (atropisomer, axis not shown) | pIC50 | > 7.00 |
| CCN(c1nc(OC[C@@]23CCCN2C[C@H](F)C3)nc2c(F)c(-c3ccc(F)c4sc(N)c(C#N)c34)c(C(F)(F)F)cc12)[C@H]1CC(=O)N(CCOC)C1 (atropisomer, axis not shown) | pIC50 | > 7.00 |
| CCN(c1nc(OC[C@@]23CCCN2C[C@H](F)C3)nc2c(F)c(-c3ccc(F)c4sc(N)c(C#N)c34)c(C(F)(F)F)cc12)[C@@H]1CCN(C(=O)[C@@H](C)OC)[C@@H]1C (atropisomer, axis not shown) | pIC50 | > 7.00 |
| C[C@H]1Cn2nnc(C#N)c2CN1c1nc(OC[C@@]23CCCN2C[C@H](F)C3)nc2c(F)c(-c3ccc(F)c4sc(N)c(C#N)c34)c(C(F)(F)F)cc12 (atropisomer, axis not shown) | pIC50 | 5.00 to 6.00 |
| CCN(c1nc(OC[C@@]23CCCN2C[C@H](F)C3)nc2c(F)c(-c3ccc(F)c4sc(N)c(C#N)c34)c(C(F)(F)F)cc12)[C@H]1CCN(C(=O)[C@@H]2C[C@@H]2C)C1 (atropisomer, axis not shown) | pIC50 | 6.00 to 7.00 |
| CCN(c1nc(OC[C@@]23CCCN2C[C@H](F)C3)nc2c(F)c(-c3ccc(F)c4sc(N)c(C#N)c34)c(C(F)(F)F)cc12)[C@H]1CCN(C(=O)[C@@H]2CCO2)C1 (atropisomer, axis not shown) | pIC50 | > 7.00 |
| CCN(c1nc(OC[C@]23CCCN2C[C@H](F)C3)nc2c(F)c(-c3ccc(F)c4sc(N)c(C#N)c34)c(C(F)(F)F)cc12)[C@H]1CCN(C(=O)C(C)C)C1 | pIC50 | > 7.00 |
| CCN(c1nc(OC[C@@]23CCCN2C[C@H](F)C3)nc2c(F)c(-c3ccc(F)c4sc(N)c(C#N)c34)c(C(F)(F)F)cc12)[C@H]1CCN(C(=O)N(C)C)[C@@H]1C (atropisomer, axis not shown) | pIC50 | > 7.00 |

---

- Target or test system: Avi-KRAS G12D (1-169) GppNHp/RAF1 RBD-3xFLAG (52-151) (Homo sapiens, UniProt P01116, G12D)
- Construct: Avi-KRAS G12D (1-169)
- Sequence (P01116 1-169 isoform P01116-2 G12D): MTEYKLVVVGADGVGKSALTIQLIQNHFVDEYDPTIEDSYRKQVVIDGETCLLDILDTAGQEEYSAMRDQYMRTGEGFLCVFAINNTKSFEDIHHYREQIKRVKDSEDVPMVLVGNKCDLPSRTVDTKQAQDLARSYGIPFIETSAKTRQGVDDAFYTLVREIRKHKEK
- Method notes: Raf1-KRAS G12D-GppNHP disruption HTRF assay (Biological Example 1)
- Format: binding
- Reported conditions: KRAS G12D, GppNHp-loaded; Table 11
This listing pairs compounds with measured IC50.

| Compound | Target or test system | IC50 |
| --- | --- | --- |
| N#Cc1c(N)sc2c(F)ccc(-c3c(C(F)(F)F)cc4c(N5CCC(CO)CC5)nc(OC[C@@]56CCCN5C[C@H](F)C6)nc4c3F)c12 | Avi-KRAS G12D (1-169) GppNHp/RAF1 RBD-3xFLAG (52-151) (Homo sapiens, UniProt P01116, G12D) | 0.1 to 1 µM |
| N#Cc1c(N)sc2c(F)ccc(-c3c(C(F)(F)F)cc4c(N5CC6CC(C5)O6)nc(OC[C@@]56CCCN5C[C@H](F)C6)nc4c3F)c12 (single isomer, unassigned) [Compound 275] | Avi-KRAS G12D (1-169) GppNHp/RAF1 RBD-3xFLAG (52-151) (Homo sapiens, UniProt P01116, G12D) | 0.1 to 1 µM |
| CC(=O)N1CCN(c2nc(OC[C@@]34CCCN3C[C@H](F)C4)nc3c(F)c(-c4ccc(F)c5sc(N)c(C#N)c45)c(C(F)(F)F)cc23)C[C@@H]1CC#N | Avi-KRAS G12D (1-169) GppNHp/RAF1 RBD-3xFLAG (52-151) (Homo sapiens, UniProt P01116, G12D) | 1 to 10 µM |
| N#Cc1c(N)sc2c(F)ccc(-c3c(C(F)(F)F)cc4c(N5CCn6nncc6C5)nc(OC[C@@]56CCCN5C[C@H](F)C6)nc4c3F)c12 | Avi-KRAS G12D (1-169) GppNHp/RAF1 RBD-3xFLAG (52-151) (Homo sapiens, UniProt P01116, G12D) | 0.1 to 1 µM |
| C[C@H](O)CN(C)c1nc(OC[C@@]23CCCN2C[C@H](F)C3)nc2c(F)c(-c3ccc(F)c4sc(N)c(C#N)c34)c(C(F)(F)F)cc12 | Avi-KRAS G12D (1-169) GppNHp/RAF1 RBD-3xFLAG (52-151) (Homo sapiens, UniProt P01116, G12D) | < 0.1 µM |

---

This listing pairs compounds with measured IC50.
- Target or test system: Avi-KRAS G12R (1-169) GppNHp/RAF1 RBD-3xFLAG (52-151) (Homo sapiens, UniProt P01116, G12R)
- Construct: Avi-KRAS G12R (1-169)
- Sequence (P01116 1-169 isoform P01116-2 G12R): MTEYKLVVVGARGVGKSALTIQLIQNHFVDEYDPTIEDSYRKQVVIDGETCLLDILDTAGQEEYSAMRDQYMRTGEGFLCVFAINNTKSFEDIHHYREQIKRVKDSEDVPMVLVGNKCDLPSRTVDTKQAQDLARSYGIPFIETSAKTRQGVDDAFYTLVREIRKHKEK
- Method notes: Raf1-KRAS G12R-GppNHP disruption HTRF assay (Biological Example 1)
- Assay type: binding
- Reported conditions: KRAS G12R, GppNHp-loaded; class symbols

| Compound | IC50 |
| --- | --- |
| C=C(F)C(=O)N1CC[C@@H](N(C)c2nc(OC[C@@]34CCCN3C[C@H](F)C4)nc3c(F)c(-c4ccc(F)c5sc(N)c(C#N)c45)c(C(F)(F)F)cc23)[C@H]1C | 100 to 1000 nM |
| CCN(c1nc(OC[C@@]23CCCN2C[C@H](F)C3)nc2c(F)c(-c3ccc(F)c4sc(N)c(C#N)c34)c(C(F)(F)F)cc12)[C@H]1CCN(C(=O)[C@@H](C)OC)[C@@H]1C (atropisomer, axis not shown) | < 100 nM |
| CCN(c1nc(OC[C@@]23CCCN2C[C@H](F)C3)nc2c(F)c(-c3ccc(F)c4sc(N)c(C#N)c34)c(C(F)(F)F)cc12)[C@H]1CCN(C(=O)C2C[C@@H]2C)C1 (stereo partly drawn) | < 100 nM |
| CCC(=O)N1C[C@@H](N(CC)c2nc(OC[C@@]34CCCN3C[C@H](F)C4)nc3c(F)c(-c4ccc(F)c5sc(N)c(C#N)c45)c(C(F)(F)F)cc23)C[C@H]1COC (atropisomer, axis not shown) | 100 to 1000 nM |
| CCN(c1nc(OC[C@@]23CCCN2C[C@H](F)C3)nc2c(F)c(-c3ccc(F)c4sc(N)c(C#N)c34)c(C(F)(F)F)cc12)[C@H]1CCN(C(C)=O)[C@@H]1C (atropisomer, axis not shown) | < 100 nM |
| CCN(c1nc(OC[C@H]2C[C@@H](OC)CN2C)nc2c(F)c(-c3ccc(F)c4sc(N)c(C#N)c34)c(C(F)(F)F)cc12)[C@H]1CCN(C(=O)C(C)C)C1 | 1000 to 10000 nM |
| CCN(c1nc(OC[C@@]23CCCN2C[C@H](F)C3)nc2c(F)c(-c3ccc(F)c4sc(N)c(C#N)c34)c(C(F)(F)F)cc12)[C@@H]1C[C@H](C)N(C(=O)COC)C1 (atropisomer, axis not shown) | 100 to 1000 nM |
| CCN(c1nc(OC[C@@]23CCCN2C[C@H](F)C3)nc2c(F)c(-c3ccc(F)c4sc(N)c(C#N)c34)c(C(F)(F)F)cc12)[C@H]1CCN(C(=O)C2CC(OC)C2)C1 (stereo partly drawn) | < 100 nM |
| CCN(c1nc(OC[C@@]23CCCN2C[C@H](F)C3)nc2c(F)c(-c3ccc(F)c4sc(N)c(C#N)c34)c(C(F)(F)F)cc12)[C@H]1CC(=O)N(CCF)C1 (atropisomer, axis not shown) | < 100 nM |
